# Test system: ryegrass, Italian (Italian ryegrass, Lolium multiflorum)
# PROTOCOL_SUMMARY: Test A greenhouse herbicide test, pre- and postemergence
# Type: in vivo
# SETTINGS: Postemergence, 125 g ai/ha; 0 to 100 scale where 0 is no effect and 100 is complete control
Plant response rating, Ryegrass, Italian under 60 gets satisfied, anything at or over 60 gets not satisfied.

Report whether reported Plant response rating, Ryegrass, Italian is lower than 60 (strictly) for Cc1ccc2ccccc2c1-c1c(OC(=O)OC(C)C)c(C)nn(C)c1=O
not satisfied

Report whether reported Plant response rating, Ryegrass, Italian is lower than 60 (strictly) for CCc1nn(CC)c(=O)c(-c2c(C)oc3ccc(C)cc23)c1O
satisfied

Report whether reported Plant response rating, Ryegrass, Italian is lower than 60 (strictly) for CCC(=O)Oc1c(OC)nn(C)c(=O)c1-c1c(C)sc2ccc(Cl)cc12
not satisfied

Report whether reported Plant response rating, Ryegrass, Italian is lower than 60 (strictly) for CC(=O)Oc1c(C)nn(C)c(=O)c1-c1c(C)cc(C)c2ccccc12
not satisfied

Report whether reported Plant response rating, Ryegrass, Italian is lower than 60 (strictly) for Cc1nn(C)c(=O)c(-c2c(C)n(C)c3ccc(Cl)cc23)c1O
satisfied

Report whether reported Plant response rating, Ryegrass, Italian is lower than 60 (strictly) for Cc1nn(C)c(=O)c(-c2ccc(Br)c3ccccc23)c1O
not satisfied

Report whether reported Plant response rating, Ryegrass, Italian is lower than 60 (strictly) for CC(=O)Oc1cnn(C)c(=O)c1-c1c(C)sc2ccccc12
satisfied

Report whether reported Plant response rating, Ryegrass, Italian is lower than 60 (strictly) for CCC(=O)Oc1c(C)nn(C)c(=O)c1-c1ccc(Br)c2ccccc12
not satisfied

Report whether reported Plant response rating, Ryegrass, Italian is lower than 60 (strictly) for Cc1sc2ccccc2c1-c1c(O)c(Cl)nn(C)c1=O
not satisfied

Report whether reported Plant response rating, Ryegrass, Italian is lower than 60 (strictly) for Cc1ccc2ccccc2c1-c1c(OC(=O)C(C)(C)C)c(C#N)nn(C)c1=O
satisfied

Report whether reported Plant response rating, Ryegrass, Italian is lower than 60 (strictly) for COC(=O)Oc1c(C)nn(C)c(=O)c1-c1ccc(Br)c2ccccc12
not satisfied

Report whether reported Plant response rating, Ryegrass, Italian is lower than 60 (strictly) for CCc1nn(C)c(=O)c(-c2c(C)oc3ccc(C)cc23)c1O
satisfied

Report whether reported Plant response rating, Ryegrass, Italian is lower than 60 (strictly) for Cc1nn(C)c(=O)c(-c2cccc3ccc(OC(F)F)cc23)c1O
satisfied

Report whether reported Plant response rating, Ryegrass, Italian is lower than 60 (strictly) for Cc1cc2ccccc2c(-c2c(O)c(C)nn(C)c2=O)c1C
not satisfied

Report whether reported Plant response rating, Ryegrass, Italian is lower than 60 (strictly) for Cc1ccc2ccc(Cl)cc2c1-c1c(O)c(C)nn(C)c1=O
not satisfied

Report whether reported Plant response rating, Ryegrass, Italian is lower than 60 (strictly) for Cc1ccc2oc(C)c(-c3c(O)c(-c4ccccc4)nn(C)c3=O)c2c1
satisfied

Report whether reported Plant response rating, Ryegrass, Italian is lower than 60 (strictly) for Cc1ccc2oc(C)c(-c3c(O)c(C(C)C)nn(C)c3=O)c2c1
satisfied

Report whether reported Plant response rating, Ryegrass, Italian is lower than 60 (strictly) for COC(=O)Oc1c(OC)nn(C)c(=O)c1-c1c(C)sc2ccc(Cl)cc12
not satisfied

----------
Give measured Plant response rating, Foxtail, Giant for each item. Keep answers brief.
# Test system: foxtail, giant (giant foxtail, Setaria faberii)
# PROTOCOL_SUMMARY: Test A greenhouse herbicide test, pre- and postemergence
# Assay type: in vivo
# SETTINGS: Preemergence, 125 g ai/ha; visual injury rating, 0 to 100 scale (0 no effect, 100 complete control), approx. 10 d
Just the number, please, no unit attached.

Looking up Cc1n[nH]c(=O)c(-c2cccc3ccccc23)c1OCC(F)F [Compound 173] , I see its Plant response rating, Foxtail, Giant listed as 0

Looking up CC(=O)Oc1c(Cl)nn(C)c(=O)c1-c1c(C)sc2ccc(C(F)(F)F)cc12 [Compound 152] , I see its Plant response rating, Foxtail, Giant listed as 40

Looking up Cc1cc(C)c2sc(C)c(-c3c(OC(=O)N4CCOCC4)c(C)nn(C)c3=O)c2c1 [Compound 174] , I see its Plant response rating, Foxtail, Giant listed as 0

Looking up CCC(=O)Oc1c(Br)nn(C)c(=O)c1-c1c(C)ccc2ccccc12 [Compound 156] , I see its Plant response rating, Foxtail, Giant listed as 80

----------
# Test system: barnyardgrass (Echinochloa crus-galli)
# PROTOCOL_SUMMARY: Test C greenhouse herbicide test, pre- and postemergence
# Type: in vivo
# SETTINGS: Postemergence, 250 g ai/ha; scale 0 to 100, 0 no effect, 100 complete control; 13 to 15 d
Param threshold (40) applies to Plant response rating, Barnyardgrass; output T when value >= threshold, F when value < threshold.

Identify whether the reported Plant response rating, Barnyardgrass of the following compound is 40 or greater: Cc1nn(C)c(=O)c(-c2cccc3ccccc23)c1O [Compound 11]
F

Identify whether the reported Plant response rating, Barnyardgrass of the following compound is 40 or greater: CC(=O)Oc1c(C)nn(C)c(=O)c1-c1c(C)sc2ccc(Cl)cc12 [Compound 108]
T

Identify whether the reported Plant response rating, Barnyardgrass of the following compound is 40 or greater: Cc1nn(C)c(=O)c(-c2cccc3ccc(Br)cc23)c1O [Compound 126]
T

Identify whether the reported Plant response rating, Barnyardgrass of the following compound is 40 or greater: Cc1nn(C)c(=O)c(-c2ccc(Br)c3ccccc23)c1O [Compound 75]
F

Identify whether the reported Plant response rating, Barnyardgrass of the following compound is 40 or greater: Cc1nn(C)c(=O)c(-c2ccc(Cl)c3ccccc23)c1O [Compound 139]
T

Identify whether the reported Plant response rating, Barnyardgrass of the following compound is 40 or greater: CCC(=O)Oc1c(C)nn(C)c(=O)c1-c1c(C)ccc2ccccc12 [Compound 78]
F

Identify whether the reported Plant response rating, Barnyardgrass of the following compound is 40 or greater: COC(=O)Oc1cnn(C)c(=O)c1-c1c(C)sc2ccccc12 [Compound 97]
F

Identify whether the reported Plant response rating, Barnyardgrass of the following compound is 40 or greater: Cc1ccc2ccccc2c1-c1c(O)c(Br)nn(C)c1=O [Compound 23]
T

Identify whether the reported Plant response rating, Barnyardgrass of the following compound is 40 or greater: CCCC(=O)Oc1c(C)nn(C)c(=O)c1-c1c(C)sc2ccc(C)cc12 [Compound 105]
F

----------
# System: barley, winter (winter barley, Hordeum vulgare)
# PROTOCOL_SUMMARY: Test D controlled growth environment herbicide test, pre- and postemergence
# Format: in vivo
# SETTINGS: postemergence, 62 g ai/ha; scale 0 to 100, 0 no effect, 100 complete control
QUANTITY: Plant response rating, Barley, Winter

Tested on barley, winter (winter barley, Hordeum vulgare), the item Cc1nn(C)c(=O)c(-c2ccc(F)c3ccccc23)c1O [Compound 41] showed Plant response rating, Barley, Winter equal to 5

Tested on barley, winter (winter barley, Hordeum vulgare), the item Cc1cc(C)c2sc(C)c(-c3c(O)c(C)nn(C)c3=O)c2c1 [Compound 2] showed Plant response rating, Barley, Winter equal to 10

Tested on barley, winter (winter barley, Hordeum vulgare), the item Cc1nn(C)c(=O)c(-c2c(C)sc3ccc(Br)cc23)c1O [Compound 22] showed Plant response rating, Barley, Winter equal to 0

Tested on barley, winter (winter barley, Hordeum vulgare), the item CCCC(=O)Oc1c(C)nn(C)c(=O)c1-c1c(C)sc2ccc(C)cc12 [Compound 105] showed Plant response rating, Barley, Winter equal to 10

Tested on barley, winter (winter barley, Hordeum vulgare), the item CC(=O)Oc1c(C)nn(C)c(=O)c1-c1c(C)sc2ccc(Cl)cc12 [Compound 108] showed Plant response rating, Barley, Winter equal to 5

Tested on barley, winter (winter barley, Hordeum vulgare), the item CCc1sc2c(C)cc(C)cc2c1-c1c(O)c(C)nn(C)c1=O [Compound 57] showed Plant response rating, Barley, Winter equal to 30

----------
# Tested on: foxtail, green (green foxtail, Setaria viridis)
# PROTOCOL_SUMMARY: Test D controlled growth environment herbicide test, pre- and postemergence
# Format: in vivo
# SETTINGS: Postemergence, 250 g ai/ha; scale 0 to 100 (0 no effect, 100 complete control)
QUANTITY: Plant response rating, Foxtail, Green
Just the number, please, no unit attached.

Tested on foxtail, green (green foxtail, Setaria viridis), the item Cc1ccc2sc(C)c(-c3c(OC(=O)OC(C)C)c(C)nn(C)c3=O)c2c1 [Compound 66] showed Plant response rating, Foxtail, Green equal to 98

Tested on foxtail, green (green foxtail, Setaria viridis), the item CC(=O)Oc1c(C)nn(C)c(=O)c1-c1c(C)sc2ccc(Cl)cc12 [Compound 108] showed Plant response rating, Foxtail, Green equal to 95

Tested on foxtail, green (green foxtail, Setaria viridis), the item Cc1nn(C)c(=O)c(-c2ccc(Br)c3ccccc23)c1O [Compound 75] showed Plant response rating, Foxtail, Green equal to 60

Tested on foxtail, green (green foxtail, Setaria viridis), the item COC(=O)Oc1c(C)nn(C)c(=O)c1-c1c(C)sc2ccc(C)cc12 [Compound 80] showed Plant response rating, Foxtail, Green equal to 95
